All values here come from patent US6878736B1.

Target: Histamine H3 receptor (Cavia porcellus, UniProt Q9JI35)
Sequence (Q9JI35 whole entry): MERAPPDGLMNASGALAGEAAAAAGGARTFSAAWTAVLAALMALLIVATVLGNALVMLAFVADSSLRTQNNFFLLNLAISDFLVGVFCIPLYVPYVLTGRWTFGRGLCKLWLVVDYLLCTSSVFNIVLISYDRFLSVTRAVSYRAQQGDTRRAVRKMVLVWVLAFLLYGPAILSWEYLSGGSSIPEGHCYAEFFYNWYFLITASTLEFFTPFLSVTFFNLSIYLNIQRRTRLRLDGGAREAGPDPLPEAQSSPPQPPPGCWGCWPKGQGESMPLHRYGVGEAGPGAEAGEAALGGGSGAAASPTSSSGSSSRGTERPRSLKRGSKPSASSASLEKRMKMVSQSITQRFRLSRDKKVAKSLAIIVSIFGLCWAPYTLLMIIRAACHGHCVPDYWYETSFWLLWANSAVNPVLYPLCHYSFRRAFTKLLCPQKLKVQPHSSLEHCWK
Assay: Histamine H3 radioligand binding assay, guinea pig cortex ([3H]-R-α-methylhistamine)
Details: guinea pig cortex membranes, competition with 1 nM [3H]-R-α-methylhistamine; read-out: pKi (Guinea pig cortex) (converted)
Procedure: The compounds of the invention were also tested in a guinea pig cortex binding assay, as follows: Histamine H3 Radioligand Binding Assay—Guinea Pig Cortex Male Dunkin Hartley guinea pigs (200-300 g) were used. The whole brain was removed and immediately placed in ice-cold 20 mM Hepes-NaOH buffer (pH7.4 at 21±3° C.). […] Data are analysed using GraphPad prism and the general equation for a competition curve with variable Hill slope (nH). […]
Structures can show the parent of a compound that is named as a salt.
EXPERIMENTAL ENDPOINT: Ki (nM)

>>> observed_measurement("N=C(NCCCN1CCCC1)NCCc1ccc(Br)cc1 [Example 26, bis-hydrochloride]")
39.8
>>> observed_measurement("N=C(NCCCN1CCOCC1)NCc1ccc(Cl)cc1 [Example 15, bis-hydrochloride]")
794
>>> observed_measurement("CN1CCC[C@H]1CCCNS(=O)(=O)Cc1ccc(Cl)cc1")
200
>>> observed_measurement("CCC(C)CNC(=N)NCCCCCN1CCCC1 (stereo not shown) [Example 67, bis-hydrochloride]")
2.51
>>> observed_measurement("N=C(NCCCCN1CCCC1)NCCCC12CC3CC(CC(C3)C1)C2 [Example 36, bis-hydrochloride]")
50.1

[A] N=C(NCCCN1CCCC1)NCCC1CCCCC1 [Example 42, bis-hydrochloride]
[B] CN1CCCC1CCCCNS(=O)(=O)Cc1ccc(Cl)cc1 (stereo not shown)
[C] N=C(NCCCCCN1CCCC1)NCCc1ccc(Cl)cc1 [Example 25, bis-hydrochloride]
**Q:** Ascending by Ki, please: list the compounds accordingly. Arrange the labels as the request states and list them.
**A:** C, A, B

---

Molecular target: Histamine H3 receptor (Cavia porcellus)
Experiment: Histamine H3 radioligand binding assay, guinea pig cortex ([3H]-R-α-methylhistamine)
Conditions: guinea pig cortex membranes, competition with 1 nM [3H]-R-α-methylhistamine; read-out: pKi (Guinea pig cortex) (converted)
EXPERIMENTAL ENDPOINT: Ki (nM)

[a] CN1CCCC1CCCCNS(=O)(=O)NCc1ccc(Cl)cc1 (centres unmarked) [Example 116]
[b] CC(C)CN1CCC[C@H]1CCCNS(=O)(=O)NCc1ccc(Cl)cc1 [Example 119]
**Q:** Hi, I'm comparing two records. Which one has the lower Ki, a or b ? When you have decided, please share the label of that item.
**A:** b

---

Documented pKi (Guinea pig cortex) across a set of molecules
Molecular target: Histamine H3 receptor (Cavia porcellus)
Assay: Histamine H3 radioligand binding assay, guinea pig cortex ([3H]-R-α-methylhistamine)
Settings: guinea pig cortex membranes, competition with 1 nM [3H]-R-α-methylhistamine
Field format: numeric only.

Before answering, review these 5 worked examples.
>>> observed_measurement("Cl.Cl.N=C(NCCCCN1CCCC1)NCc1ccc(-c2ccccc2)cc1 [Example 54]")
7.3
>>> observed_measurement("Cl.Cl.N=C(NCCCCCN1CCCCCCC1)NCC12CC3CC(CC(C3)C1)C2 [Example 62]")
7.5
>>> observed_measurement("Cl.Cl.N=C(NCCCCN1CCCC1)NCC1CCCCC1 [Example 40]")
8.4
>>> observed_measurement("Cl.Cl.N=C(NCCCCCN1CCCCC1)NCC12CC3CC(CC(C3)C1)C2 [Example 60]")
8.0
>>> observed_measurement("Cl.Cl.N=C(NCCCCCN1CCCC1)NCC1CCCCCC1 [Example 46]")
8.5

**Q:** Please report the measured pKi (Guinea pig cortex) for Cl.Cl.N=C(NCCCCCCCN1CCCC1)NCC12CC3CC(CC(C3)C1)C2 [Example 32] tested on Histamine H3 receptor (Cavia porcellus).
**A:** 8.5

**Q:** Using Histamine H3 receptor (Cavia porcellus) as the test system, report measured pKi (Guinea pig cortex) of Cl.Cl.N=C(NCCCCCN1CCCC1)NCC1CCCCC1 [Example 41] .
**A:** 8.9

**Q:** Answer briefly: pKi (Guinea pig cortex) recorded on Histamine H3 receptor (Cavia porcellus) for CN1CCN(CCCCCNC(=N)NCC23CC4CC(CC(C4)C2)C3)CC1.Cl.Cl.Cl [Example 63]
**A:** 7.7

**Q:** Give the observed pKi (Guinea pig cortex) of Cl.Cl.N=C(NCCCCCN1CCCCCC1)NCC12CC3CC(CC(C3)C1)C2 [Example 61] for Histamine H3 receptor (Cavia porcellus).
**A:** 8.1

**Q:** Using Histamine H3 receptor (Cavia porcellus) as the test system, report measured pKi (Guinea pig cortex) of Cl.Cl.N=C(NCCCCCN1CCCC1)NCC12CC3CC(CC(C3)C1)C2 [Example 30] .
**A:** 8.5

**Q:** Provide pKi (Guinea pig cortex), recorded with Histamine H3 receptor (Cavia porcellus), of Cl.Cl.N=C(NCCCN1CCCC1)NCC1CCCCC1 [Example 39]
**A:** 7.4

**Q:** Given CN1C[C@H](O)C[C@@H]1CCCNS(=O)(=O)NCc1ccc(Cl)cc1 [Example 132] , report its pKi (Guinea pig cortex) on Histamine H3 receptor (Cavia porcellus).
**A:** 6.9
